Where do the numbers come from? From paper PMC12362594.

Dear all, this message contains pIC50 results, target or system P2Y12R (Homo sapiens, UniProt Q9H244).
Note on pIC50: it is the negative log10 of concentration, concentration in mol/L.

Below are worked cases with known answers.
>>> numeric_value("CCOC(=O)c1cc(C#N)c(N2CCN(C(=O)NCc3ccc(F)cc3)CC2)nc1C")
5.73
>>> numeric_value("CCOC(=O)c1cnc(N2CCC(C(=O)NCCc3ccc(F)cc3)CC2)c(Cl)c1")
6.18
>>> numeric_value("CCOC(=O)c1ccc(N2CCC(C(=O)NCc3ccc(F)cc3)CC2)nc1C")
6.12
>>> numeric_value("CCOC(=O)c1cnc(N2CC(C(=O)NCc3ccc(F)cc3)C2)c(Cl)c1")
6.25

Here's the next entry for you.
What pIC50 value was documented for this compound, `CCOC(=O)c1cc(C#N)c(N2CCC(C(=O)NCCc3ccc(F)cc3)CC2)nc1C` ? 4.57

* * *

Dear all, this message contains pIC50 results, target or system UniProt Q9H244.
Note on pIC50: it is the negative log10 of concentration, concentration in mol/L.

Below are worked cases with known answers.
>>> numeric_value("CCOC(=O)c1ccc(N2CC(C(=O)NCc3ccc(F)cc3)C2)nc1C")
6.09
>>> numeric_value("N#Cc1cc2c(nc1N1CCC(C(=O)NCc3ccc(F)cc3)CC1)COC2=O")
6.70

What pIC50 value was documented for this compound, `CCOC(=O)c1ccc(N2CCC(C(=O)NCCc3ccc(F)cc3)CC2)nc1C` ? 5.90
